- Test system: OATP1B1, OATP1B3, and OATP2B1
- ASSAY_PROTOCOL: Uptake (intracellular accumulation) kinetics in ABCC2/OATP1B1/1B3/2B1 quadruple-transfected MDCKII cells
- Assay type: in vitro ADME, human
- TEST_SETTINGS: human, pH 7.3, cell line ABCC2-OATP1B1/1B3/2B1 (quadruple-transfectant); intracellular accumulation of 3H-labeled substrate; read-out: Km
Reported Km values for a set of compounds
Form entry: value (µM) — number only.

CC(C)n1c(/C=C/C(O)CC(O)CC(=O)O)c(-c2ccc(F)cc2)c2ccccc21 (centres unmarked) | 2.3

Shift focus to the following entry.
Inquiry: Km lookup needed for O=C1OC(c2ccc(O)c(S(=O)(=O)O)c2)(c2ccc(O)c(S(=O)(=O)O)c2)c2c(Br)c(Br)c(Br)c(Br)c21 , thanks.
Reply text: 4.8

* * *

- TGT: OATP1B3 (Homo sapiens, UniProt Q9NPD5)
- ASSAY_PROTOCOL: Uptake (intracellular accumulation) kinetics in ABCC2/OATP1B3 double-transfected MDCKII cells
- Format: in vitro ADME
- Design: expressed in transfected cells; host or cells: MDCKII (canine kidney), co-expressing ABCC2
- TEST_SETTINGS: human, pH 7.3
ENDPOINT_NAME: Km at 5 min (µM)
Form entry: value (µM) — number only.

Inquiry: State its Km at 5 min on OATP1B3 (Homo sapiens, UniProt Q9NPD5): O=C1OC(c2ccc(O)c(S(=O)(=O)O)c2)(c2ccc(O)c(S(=O)(=O)O)c2)c2c(Br)c(Br)c(Br)c(Br)c21 [Bromosulfophthalein]
Reply text: 2.2

* * *

- TGT: OATP2B1 (Homo sapiens)
- Sequence (O94956 whole entry): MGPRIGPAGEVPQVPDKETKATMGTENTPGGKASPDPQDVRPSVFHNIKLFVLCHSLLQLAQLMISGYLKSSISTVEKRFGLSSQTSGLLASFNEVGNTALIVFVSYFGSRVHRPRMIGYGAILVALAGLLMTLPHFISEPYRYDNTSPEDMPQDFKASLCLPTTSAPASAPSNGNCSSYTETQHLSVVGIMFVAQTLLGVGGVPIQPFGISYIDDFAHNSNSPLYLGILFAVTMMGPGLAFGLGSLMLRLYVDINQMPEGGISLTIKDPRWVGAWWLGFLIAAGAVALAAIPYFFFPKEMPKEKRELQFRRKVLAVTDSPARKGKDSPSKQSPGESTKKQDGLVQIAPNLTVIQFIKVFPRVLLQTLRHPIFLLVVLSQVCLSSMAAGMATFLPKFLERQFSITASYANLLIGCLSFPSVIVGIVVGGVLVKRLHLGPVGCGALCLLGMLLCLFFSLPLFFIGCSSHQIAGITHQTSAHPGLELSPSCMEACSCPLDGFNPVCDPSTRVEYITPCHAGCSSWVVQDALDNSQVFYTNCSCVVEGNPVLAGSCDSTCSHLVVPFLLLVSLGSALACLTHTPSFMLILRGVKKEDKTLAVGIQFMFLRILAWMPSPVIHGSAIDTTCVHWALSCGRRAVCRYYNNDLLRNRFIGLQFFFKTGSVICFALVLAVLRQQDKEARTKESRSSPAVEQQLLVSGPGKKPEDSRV
- ASSAY_PROTOCOL: Uptake (intracellular accumulation) kinetics in ABCC2/OATP2B1 double-transfected MDCKII cells
- Assay type: in vitro ADME
- Parameters: expressed in transfected cells; host or cells: MDCKII (canine kidney) ABCC2 single-transfectant, further transfected with pcDNA3.1/Hygro(-)-OATP2B1
- TEST_SETTINGS: human, MDCKII cells double-transfected with ABCC2 and OATP2B1, pH 7.3; cell line ABCC2-OATP2B1; intracellular accumulation of 3H-labeled substrate; 5-min uptake
ENDPOINT_NAME: Km at 5 min (µM)
Form entry: value (µM) — number only.

Inquiry: Km at 5 min lookup needed for CC(C)n1c(/C=C/C(O)CC(O)CC(=O)O)c(-c2ccc(F)cc2)c2ccccc21 (stereo not shown) , thanks.
Reply text: 0.7

* * *

- Test system: OATP1B1, OATP1B3, and OATP2B1
- ASSAY_PROTOCOL: Uptake (intracellular accumulation) kinetics in ABCC2/OATP1B1/1B3/2B1 quadruple-transfected MDCKII cells
- Type: in vitro ADME, human
- TEST_SETTINGS: human, pH 7.3, summary bound for the OATPs, referring to Table 1; read-out: Km values for the OATPs
ENDPOINT_NAME: Km

Inquiry: State its Km on OATP1B1, OATP1B3, and OATP2B1: O=C1OC(c2ccc(O)c(S(=O)(=O)O)c2)(c2ccc(O)c(S(=O)(=O)O)c2)c2c(Br)c(Br)c(Br)c(Br)c21
Reply text: < 5 µM

* * *

- TGT: OATP1B3 (Homo sapiens, UniProt Q9NPD5)
- Sequence (Q9NPD5 1-702): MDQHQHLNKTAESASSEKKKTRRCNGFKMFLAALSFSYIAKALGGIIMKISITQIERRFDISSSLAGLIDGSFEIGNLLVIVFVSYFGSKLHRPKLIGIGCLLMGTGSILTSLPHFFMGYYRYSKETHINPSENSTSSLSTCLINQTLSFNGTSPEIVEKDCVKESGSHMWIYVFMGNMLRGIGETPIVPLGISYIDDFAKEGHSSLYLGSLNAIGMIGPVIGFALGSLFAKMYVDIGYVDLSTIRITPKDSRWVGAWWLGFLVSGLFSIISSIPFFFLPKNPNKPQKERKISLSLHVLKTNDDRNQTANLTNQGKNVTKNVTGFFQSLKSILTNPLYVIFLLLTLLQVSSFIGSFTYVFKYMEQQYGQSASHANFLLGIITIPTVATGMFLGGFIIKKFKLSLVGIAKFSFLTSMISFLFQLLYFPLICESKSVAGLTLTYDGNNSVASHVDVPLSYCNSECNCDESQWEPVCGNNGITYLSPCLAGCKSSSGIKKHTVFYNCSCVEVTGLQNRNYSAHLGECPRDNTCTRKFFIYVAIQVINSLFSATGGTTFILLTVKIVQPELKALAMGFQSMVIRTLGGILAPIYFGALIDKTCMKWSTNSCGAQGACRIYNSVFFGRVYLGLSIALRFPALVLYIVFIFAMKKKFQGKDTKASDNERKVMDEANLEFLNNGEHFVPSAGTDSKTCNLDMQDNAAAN
- ASSAY_PROTOCOL: Uptake (intracellular accumulation) kinetics in ABCC2/OATP1B3 double-transfected MDCKII cells
- Type: in vitro ADME
- Design: expressed in transfected cells; host or cells: MDCKII (canine kidney), co-expressing ABCC2
- TEST_SETTINGS: human, MDCKII cells double-transfected with ABCC2 and OATP1B3, pH 7.3; cell line ABCC2-OATP1B3; intracellular accumulation of 3H-labeled substrate; 5-min uptake; read-out: Km
ENDPOINT_NAME: Km at 5 min (µM)
Form entry: value (µM) — number only.

Inquiry: Km at 5 min lookup needed for CC(C)n1c(/C=C/C(O)CC(O)CC(=O)O)c(-c2ccc(F)cc2)c2ccccc21 (stereo not shown) , thanks.
Reply text: 7
